tested.on: human CB2 receptors (Homo sapiens (Human), UniProt P34972)
Sequence (P34972 whole entry): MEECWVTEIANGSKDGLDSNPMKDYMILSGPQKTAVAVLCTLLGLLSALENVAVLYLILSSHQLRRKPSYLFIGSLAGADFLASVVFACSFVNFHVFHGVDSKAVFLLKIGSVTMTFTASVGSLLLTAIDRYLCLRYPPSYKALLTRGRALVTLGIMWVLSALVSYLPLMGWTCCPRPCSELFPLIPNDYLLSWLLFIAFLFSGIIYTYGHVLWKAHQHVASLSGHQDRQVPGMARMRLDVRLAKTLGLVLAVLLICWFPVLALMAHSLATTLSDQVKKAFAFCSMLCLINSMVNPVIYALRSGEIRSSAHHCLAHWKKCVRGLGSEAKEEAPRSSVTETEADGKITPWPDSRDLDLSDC
assay.notes: cAMP assay, CHO cells expressing human CB2 receptors
Assay type: cell-based
condition.notes: CHO cells expressing human CB2, cAMP; read-out: human CB2 EC50
Binarize EC50 at 0.1 µM; below is true (1), at or above is false (0).

| smiles.record | class |
| --- | --- |
| CNC(=O)[C@@H](NC(=O)c1cccc(-c2cccc(OC)c2)n1)C(C)(C)C | false (0) |
| Cc1nc([C@@](C)(NC(=O)c2ccc(C3CC3)c(S(=O)(=O)CC(C)C)n2)C2CC2)no1 | true (1) |
| C[C@@H](C#N)NC(=O)c1ccc(C2CC2)c(OCC2CC2)n1 | false (0) |
| O=C(NC1(c2nccs2)COC1)c1ccc(C2CC2)c(OCC(F)(F)F)n1 | false (0) |
| CC1(COc2nc(C(=O)NC(C)(C)c3nccs3)ccc2Br)COC1 | false (0) |
